FYI, the data here is from ChEMBL document CHEMBL4699655.

assay: Protein binding in rat plasma; type: ADME, cell-free; settings: read-out: PPB (converted)
Parameter measured: fraction unbound

P. COCc1c(NC(=O)Nc2cnc(-n3nccn3)c(Cl)c2)cnc2cc(Cl)nn12
Q. COC[C@H](C)c1c(NC(=O)Nc2cnc(-n3nccn3)c(Cl)c2)cnc2cc(Cl)nn12
Hey, which is lower on measured fraction unbound, P or Q ? Your choice should be expressed through its label.
Q

====

experiment: Clearance in mouse; type: ADME, organism-based; settings: in vivo
Parameter measured: clearance (mL/min/kg)
I only need the number, in mL/min/kg, no unit after it.

In plain terms, "C[C@H]1COC[C@H](C)N1c1c(NC(=O)Nc2ccnc(C(F)(F)F)c2)cnc2cc(Cl)nn12" has a documented clearance of 15

====

experiment: Apparent volume of distribution at steady state in Sprague-Dawley rat at 1 mg/kg, iv; assay type: ADME, organism-based; conditions: in vivo, read-out: Vdss(app)
Parameter measured: Vd (L/kg)

CO[C@@H](C)c1c(NC(=O)Nc2cnc(-n3nccn3)c(Cl)c2)cnc2cc(Cl)nn12 4.2
CO[C@@H](C)c1c(NC(=O)Nc2ccnc(C(F)(F)F)c2)cnc2cc(Cl)nn12 5.3

====

target: Mucosa-associated lymphoid tissue lymphoma translocation protein 1 (Homo sapiens, UniProt Q9UDY8); assay: Inhibition of MALT1 (unknown origin) using Ac-Trp-Leu-Arg-Ser-Arg^Cys(PT14)-NH2 as substrate preincubated for 60 mins followed by substrate addition and measured after 60 mins by fluorescence assay
Sequence (Q9UDY8 whole entry): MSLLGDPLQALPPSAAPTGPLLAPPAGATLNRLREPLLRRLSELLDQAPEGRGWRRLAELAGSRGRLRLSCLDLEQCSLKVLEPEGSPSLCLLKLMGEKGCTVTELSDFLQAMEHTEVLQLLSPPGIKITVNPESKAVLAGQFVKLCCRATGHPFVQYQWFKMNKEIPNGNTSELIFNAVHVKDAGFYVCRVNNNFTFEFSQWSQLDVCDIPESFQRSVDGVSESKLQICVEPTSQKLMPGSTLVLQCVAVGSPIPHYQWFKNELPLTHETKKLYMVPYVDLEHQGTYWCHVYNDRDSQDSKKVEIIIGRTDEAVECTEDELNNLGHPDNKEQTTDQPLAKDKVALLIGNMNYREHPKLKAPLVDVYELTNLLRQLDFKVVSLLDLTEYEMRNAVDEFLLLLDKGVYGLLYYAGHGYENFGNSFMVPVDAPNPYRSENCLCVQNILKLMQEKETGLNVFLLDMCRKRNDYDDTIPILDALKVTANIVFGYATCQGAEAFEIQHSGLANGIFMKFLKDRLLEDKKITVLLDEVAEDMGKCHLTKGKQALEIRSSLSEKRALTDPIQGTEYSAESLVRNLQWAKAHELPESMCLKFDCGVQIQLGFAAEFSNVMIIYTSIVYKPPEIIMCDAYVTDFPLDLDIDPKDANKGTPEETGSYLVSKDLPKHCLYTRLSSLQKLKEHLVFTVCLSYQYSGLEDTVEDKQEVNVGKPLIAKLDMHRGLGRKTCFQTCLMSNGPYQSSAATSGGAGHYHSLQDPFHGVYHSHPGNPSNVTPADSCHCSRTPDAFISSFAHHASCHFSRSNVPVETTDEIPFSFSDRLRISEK
Parameter measured: pIC50
// field semantics: pIC50 = negative decimal log of concentration (mol/L)

get_value(item= "Cc1c(NC(=O)Nc2ccnc(C(F)(F)F)c2)cnc2cc(Cl)nn12" , readout=pIC50) returns 6.00

====

biological target: Voltage-gated inwardly rectifying potassium channel KCNH2 (Homo sapiens)
Sequence (Q12809 whole entry): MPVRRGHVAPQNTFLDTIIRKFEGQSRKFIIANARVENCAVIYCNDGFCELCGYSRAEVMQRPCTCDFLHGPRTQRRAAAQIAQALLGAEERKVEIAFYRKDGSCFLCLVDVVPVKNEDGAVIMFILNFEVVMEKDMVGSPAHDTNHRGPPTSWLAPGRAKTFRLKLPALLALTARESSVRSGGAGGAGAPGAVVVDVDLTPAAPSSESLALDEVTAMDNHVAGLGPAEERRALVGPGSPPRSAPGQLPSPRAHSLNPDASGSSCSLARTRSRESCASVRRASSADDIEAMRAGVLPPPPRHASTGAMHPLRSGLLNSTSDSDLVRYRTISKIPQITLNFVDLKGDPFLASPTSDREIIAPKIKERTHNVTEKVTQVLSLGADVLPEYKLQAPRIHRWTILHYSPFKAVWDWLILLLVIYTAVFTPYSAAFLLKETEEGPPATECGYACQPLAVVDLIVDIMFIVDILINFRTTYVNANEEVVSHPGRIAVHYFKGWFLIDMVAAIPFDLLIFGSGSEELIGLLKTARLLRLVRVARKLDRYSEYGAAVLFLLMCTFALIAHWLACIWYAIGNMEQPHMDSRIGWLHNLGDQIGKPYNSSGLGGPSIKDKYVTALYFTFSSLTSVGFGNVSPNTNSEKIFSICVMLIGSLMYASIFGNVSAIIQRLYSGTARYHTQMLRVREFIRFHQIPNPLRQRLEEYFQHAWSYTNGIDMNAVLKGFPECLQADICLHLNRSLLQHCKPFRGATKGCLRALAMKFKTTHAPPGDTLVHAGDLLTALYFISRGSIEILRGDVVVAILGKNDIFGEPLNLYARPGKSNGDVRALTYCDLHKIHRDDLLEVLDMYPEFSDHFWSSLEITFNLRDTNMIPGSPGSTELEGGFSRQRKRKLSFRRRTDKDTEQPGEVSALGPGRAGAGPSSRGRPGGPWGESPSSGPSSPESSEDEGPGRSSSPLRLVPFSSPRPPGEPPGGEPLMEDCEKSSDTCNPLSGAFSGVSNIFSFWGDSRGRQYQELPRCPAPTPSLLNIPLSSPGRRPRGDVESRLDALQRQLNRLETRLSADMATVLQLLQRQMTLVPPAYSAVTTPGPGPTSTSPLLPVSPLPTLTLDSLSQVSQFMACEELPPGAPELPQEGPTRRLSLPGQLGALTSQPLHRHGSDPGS
Parameter measured: IC50

Param item: "CO[C@@H](C)c1c(NC(=O)Nc2cnc(-n3nccn3)c(Cl)c2)cnc2cc(Cl)nn12" ; param system: Voltage-gated inwardly rectifying potassium channel KCNH2 (Homo sapiens); output IC50: > 30 µM

====

assay: Cmax in blood of OFA rat model of T-cell dependent B cell response at 3 mg/kg, po BID for 4 days starting 2 days prior to immunization and measured after 3 hrs; assay type: ADME, organism-based; design: route oral, dose 3 mg/kg, time 4 day
Parameter measured: Cmax (nM)
Hi! Could you send only the number? It should be in nM, unit omitted.

Input "CC(C)c1c(NC(=O)Nc2cnc(-n3nccn3)c(Cl)c2)cnc2cc(Cl)nn12" . Output Cmax: 1500

====

experiment: Cmax in blood of OFA rat model of T-cell dependent B cell response at 10 mg/kg, po BID for 4 days starting 2 days prior to immunization and measured after 3 hrs; type: ADME, organism-based; parameters: route oral, dose 10 mg/kg, time 4 day
Parameter measured: Cmax (µM)
Report the figure in µM without appending any unit label.

"CC(C)c1c(NC(=O)Nc2cnc(-n3nccn3)c(Cl)c2)cnc2cc(Cl)nn12" yielded Cmax of 7.6

====

test: Intrinsic clearance in human liver microsomes; format: ADME, Microsome; settings: read-out: CLH
Parameter measured: microsomal CLint (µL/min/mg)

COC[C@H](C)c1c(NC(=O)Nc2cnc(-n3nccn3)c(Cl)c2)cnc2cc(Cl)nn12 81.4

a. C[C@H]1COC[C@H](C)N1c1c(NC(=O)Nc2ccnc(C(F)(F)F)c2)cnc2cc(Cl)nn12
b. CC(C)c1c(NC(=O)Nc2ccnc(C(F)(F)F)c2)cnc2cc(Cl)nn12
Consider a and b . Which of these has its microsomal CLint at a higher number? Provide the label of your selected option as the answer.
a
(a: 114 µL/min/mg, b: 61 µL/min/mg)

====

assay: Terminal half life in Balb/C mouse at 1 mg/kg, iv; assay type: ADME, organism-based; conditions: in vivo, read-out: beta t1/2 (converted)
Parameter measured: half-life (h)

a. CO[C@@H](C)c1c(NC(=O)Nc2cnc(-n3nccn3)c(Cl)c2)cnc2cc(Cl)nn12
b. CO[C@@H](C)c1c(NC(=O)Nc2ccnc(C(F)(F)F)c2)cnc2cc(Cl)nn12
# min-compare on half-life between a and b Pick one and reply with its label.
b

====

molecular target: Mucosa-associated lymphoid tissue lymphoma translocation protein 1 (Homo sapiens, UniProt Q9UDY8); test: Inhibition of MALT1 in human whole blood assessed as reduction in PMA//anti-CD28 antibody-induced IL2 level pre-incubated for 1 hrs before stimulation with PMA//anti-CD28 antibody by MSD assay; assay type: tissue-based
Parameter measured: IC50 (µM)
Numeric answer only, unit µM assumed.

The measured IC50 associated with "C[C@H]1COC[C@H](C)N1c1c(NC(=O)Nc2ccnc(C(F)(F)F)c2)cnc2cc(Cl)nn12" reads 9

====

test: Cmax in blood of OFA rat model of T-cell dependent B cell response at 1 mg/kg, po QD for 4 days starting 2 days prior to immunization and measured after 3 hrs; type: ADME, organism-based; set-up: route oral, dose 1 mg/kg, time 4 day
Parameter measured: Cmax (nM)
Field format: number, assumed nM, no unit text.

Quick note, Cmax for "CO[C@@H](C)c1c(NC(=O)Nc2cnc(-n3nccn3)c(Cl)c2)cnc2cc(Cl)nn12" landed at 670

====

molecular target: Cytochrome P450 2C9 (Homo sapiens)
Sequence (P11712 whole entry): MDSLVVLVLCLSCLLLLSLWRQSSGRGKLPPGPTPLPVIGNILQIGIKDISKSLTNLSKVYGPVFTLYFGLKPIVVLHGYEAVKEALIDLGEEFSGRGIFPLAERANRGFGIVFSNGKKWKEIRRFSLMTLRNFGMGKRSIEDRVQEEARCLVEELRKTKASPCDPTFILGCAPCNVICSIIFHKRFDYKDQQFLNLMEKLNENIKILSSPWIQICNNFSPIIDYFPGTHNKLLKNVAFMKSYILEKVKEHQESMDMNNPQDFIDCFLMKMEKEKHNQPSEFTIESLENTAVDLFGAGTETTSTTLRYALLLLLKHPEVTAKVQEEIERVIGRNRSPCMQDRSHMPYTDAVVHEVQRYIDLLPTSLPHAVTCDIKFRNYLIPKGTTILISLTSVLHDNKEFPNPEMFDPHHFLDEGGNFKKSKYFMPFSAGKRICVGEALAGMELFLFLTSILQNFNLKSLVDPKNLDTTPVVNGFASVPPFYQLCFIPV
Parameter measured: IC50

The reported IC50 value, Cytochrome P450 2C9 (Homo sapiens), for "CO[C@@H](C)c1c(NC(=O)Nc2cnc(-n3nccn3)c(Cl)c2)cnc2cc(Cl)nn12" reads > 20 µM

====

test: Thermodynamic solubility of the compound
Parameter measured: solubility thermodynamic (µg/mL)
Just the number in µg/mL, nothing appended.

// solubility thermodynamic lookup, compound = "CO[C@@H](C)c1c(NC(=O)Nc2cnc(-n3nccn3)c(Cl)c2)cnc2cc(Cl)nn12" , result: 4

====

experiment: Apparent permeability from apical to basolateral side in human Caco-2 cells
Parameter measured: Papp A→B (×10⁻⁶ cm/s)
Respond numerically; units are ×10⁻⁶ cm/s and should not be typed.

Papp A→B recorded for this molecule, "CO[C@@H](C)c1c(NC(=O)Nc2cnc(-n3nccn3)c(Cl)c2)cnc2cc(Cl)nn12" , is 12.8

====

experiment: Intrinsic clearance in rat liver microsomes; format: ADME, Microsome; conditions: read-out: CLH
Measured microsomal CLint by item

# count of solved cases: 2
CO[C@@H](C)c1c(NC(=O)Nc2ccnc(C(F)(F)F)c2)cnc2cc(Cl)nn12 < 25 µL/min/mg
COC[C@@H](C)c1c(NC(=O)Nc2cnc(-n3nccn3)c(Cl)c2)cnc2cc(Cl)nn12 70.1 µL/min/mg

Query "COCc1c(NC(=O)Nc2cnc(-n3nccn3)c(Cl)c2)cnc2cc(Cl)nn12" yields microsomal CLint of < 25 µL/min/mg

microsomal CLint recorded for this compound, "O=C(Nc1cnc(-n2nccn2)c(Cl)c1)Nc1cnc2cc(Cl)nn2c1C1CCOCC1" , is 25.5 µL/min/mg

Summary for this compound, "CC(C)c1c(NC(=O)Nc2ccnc(C(F)(F)F)c2)cnc2cc(Cl)nn12" : microsomal CLint is < 25 µL/min/mg

microsomal CLint reading for "CC(C)c1c(NC(=O)Nc2cnc(-n3nccn3)c(Cl)c2)cnc2cc(Cl)nn12" : < 25 µL/min/mg

====

test: Oral bioavailability in Sprague-Dawley rat at 3 mg/kg; type: ADME, organism-based; conditions: in vivo
Parameter measured: bioavailability (%)

CO[C@@H](C)c1c(NC(=O)Nc2ccnc(C(F)(F)F)c2)cnc2cc(Cl)nn12 86
CO[C@@H](C)c1c(NC(=O)Nc2cnc(-n3nccn3)c(Cl)c2)cnc2cc(Cl)nn12 79

====

experiment: Clearance in Sprague-Dawley rat at 1 mg/kg, iv; assay type: ADME, organism-based; conditions: in vivo
Parameter measured: clearance (mL/min/kg)

CO[C@@H](C)c1c(NC(=O)Nc2cnc(-n3nccn3)c(Cl)c2)cnc2cc(Cl)nn12 7
CO[C@@H](C)c1c(NC(=O)Nc2ccnc(C(F)(F)F)c2)cnc2cc(Cl)nn12 9

====

experiment: Intrinsic clearance in rat liver microsomes; type: ADME, Microsome; conditions: read-out: CLH
Parameter: microsomal CLint. Scope: all listed entries.

For orientation, consider the following solved cases.
Cc1c(NC(=O)Nc2ccnc(C(F)(F)F)c2)cnc2cc(Cl)nn12 < 25 µL/min/mg
CO[C@@H](C)c1c(NC(=O)Nc2cnc(-n3nccn3)c(Cl)c2)cnc2cc(Cl)nn12 < 25 µL/min/mg

Okay, now this molecule:
Entry "CO[C@H](C)c1c(NC(=O)Nc2cnc(-n3nccn3)c(Cl)c2)cnc2cc(Cl)nn12" , microsomal CLint reported as < 25 µL/min/mg

====

assay: Protein binding in human plasma; assay type: ADME, cell-free; conditions: read-out: PPB (converted)
Parameter measured: fraction unbound

O=C(Nc1cnc(-n2nccn2)c(Cl)c1)Nc1cnc2cc(Cl)nn2c1C1CCOCC1 0.012
COC[C@H](C)c1c(NC(=O)Nc2cnc(-n3nccn3)c(Cl)c2)cnc2cc(Cl)nn12 0.014
COC[C@@H](C)c1c(NC(=O)Nc2cnc(-n3nccn3)c(Cl)c2)cnc2cc(Cl)nn12 0.015
CO[C@H](C)c1c(NC(=O)Nc2cnc(-n3nccn3)c(Cl)c2)cnc2cc(Cl)nn12 0.023
CO[C@@H](C)c1c(NC(=O)Nc2cnc(-n3nccn3)c(Cl)c2)cnc2cc(Cl)nn12 0.017
